Experiment: Solubility assay
Assay type: physicochemical
Conditions: buffer, pH 6.8; read-out: Aq. Solubility
endpoint: solubility at 2 h (µM)
Write the value in µM as a bare number.

solubility at 2 h lookup needed for COc1cc2ncnc(Nc3cccc(Cl)c3F)c2cc1OCCON1CCN(C)CC1 [Compound 9] , thanks.
262

----------
Assay: Pharmacokinetic study
Format: in vivo, BALB/c nude mice
Details: female, BALB/c nude, plasma; Mouse 30 mg/kg (PO)
endpoint: Cmax at 24 h
Provide a numeric answer, followed by its unit.

Cmax at 24 h lookup needed for COc1cc2ncnc(Nc3cccc(Cl)c3F)c2cc1OCCON1CCN(C)CC1 , thanks.
2180 nM

----------
Assay: Lipophilicity, shake-flask
Assay type: physicochemical
Settings: 1-octanol/PBS; 1-octanol and PBS (pH 7.4); read-out: logD7.4
endpoint: logD at 2 h, 1 µM
Form rule: numeric answer, no unit written next to it.

- molecule: "COc1cc2ncnc(Nc3cccc(Cl)c3F)c2cc1OCCON1CCOCC1"
  endpoint value: 3.4
- molecule: "COc1cc2ncnc(Nc3ccc(F)c(Cl)c3)c2cc1OCCON1CCOCC1"
  endpoint value: 3.9
- molecule: "COc1cc2ncnc(Nc3ccc(F)c(Cl)c3)c2cc1OCCON1CCN(C)CC1"
  endpoint value: 3.3

logD at 2 h, 1 µM lookup needed for COc1cc2ncnc(Nc3ccc(F)c(Cl)c3)c2cc1OCCCN1CCOCC1 [Gefitinib (1), Gefitinib, reference compound] , thanks.
3.7

Similarly, COc1cc2ncnc(Nc3cccc(Cl)c3F)c2cc1OCCON1CCN(C)CC1 ?
2.8

----------
Tested on: MDR1
Assay: MDCKII-MDR1 permeability
Format: in vitro ADME, canine
Details: dog, MDCK-MDR1; 1 μM, 2 h
In this section, each of the compounds is paired with its reported Papp A→B at 2 h, 1 µM.
Write the value in ×10⁻⁶ cm/s as a bare number.

Below, 3 compounds whose answers are already recorded.
- smiles code: "COc1cc2ncnc(Nc3ccc(F)c(Cl)c3)c2cc1OCCON1CCOCC1"
  units text: "×10⁻⁶ cm/s"
  Papp A→B at 2 h, 1 µM: 4.2
- smiles code: "COc1cc2ncnc(Nc3ccc(F)c(Cl)c3)c2cc1OCCON1CCN(C)CC1"
  units text: "×10⁻⁶ cm/s"
  Papp A→B at 2 h, 1 µM: 1.4
- smiles code: "COc1cc2ncnc(Nc3cccc(Cl)c3F)c2cc1OCCON1CCOCC1"
  units text: "×10⁻⁶ cm/s"
  Papp A→B at 2 h, 1 µM: 12.6

Papp A→B at 2 h, 1 µM lookup needed for COc1cc2ncnc(Nc3cccc(Cl)c3F)c2cc1OCCON1CCN(C)CC1 , thanks.
9.8

----------
Test: Plasma stability
Type: in vitro ADME, Sprague-Dawley rat
Settings: rat plasma, 15 min
In this section, each of the compounds is paired with its reported Remaining Percentages.
Provide a numeric answer, followed by its unit.

Below, 4 compounds whose answers are already recorded.
- compound: "COc1cc2ncnc(Nc3cccc(Cl)c3F)c2cc1OCCON1CCN(C)CC1"
  Remaining Percentages: "96.53%"
- compound: "COc1cc2ncnc(Nc3cccc(Cl)c3F)c2cc1OCCON1CCOCC1"
  Remaining Percentages: "91.34%"
- compound: "COc1cc2ncnc(Nc3ccc(F)c(Cl)c3)c2cc1OCCCN1CCOCC1 [Gefitinib (1), Gefitinib, reference compound]"
  Remaining Percentages: "100.11%"
- compound: "CC[C@H](C)C(=O)O[C@H]1C[C@@H](C)C=C2C=C[C@H](C)[C@H](CC[C@@H]3C[C@@H](O)CC(=O)O3)[C@H]21 [Mevinolin, reference compound]"
  Remaining Percentages: "1.54%"

Shifting focus to the compound that follows.
Remaining Percentages lookup needed for COc1cc2ncnc(Nc3ccc(F)c(Cl)c3)c2cc1OCCON1CCOCC1 , thanks.
100.23%

Each recorded value in this set is attributed to paper PMC10683025.
